# Test system: Escherichia coli TOP10;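 also: peptides expressed intracellularly from a pBAD plasmid library in pooled LB shake-flask culture, induced with 0.3% L-arabinose, DNA abundance read by NGS, three biological replicates, DESeq2 with apeglm shrinkage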
# MEASUREMENT DESCRIPTION: shrunken log2 fold change of peptide-encoding DNA abundance (4.5 h post-induction vs induction); higher = less antimicrobial activity (less host growth inhibition)
# SETTINGS: time post-induction: 4.5 h; library: site-saturation at positions 5, 18, 19, 20
REPORTED ENDPOINT: shrunken log2 fold change

Look over these answered cases.
# RESIDUE STRING, EXPERIMENTAL TARGET, shrunken log2 fold change
data = [
    ("RRIRVRPPRLPRPRPRPIYIPRP", "Escherichia coli TOP10", -0.755),
    ("RRIRDRPPRLPRPRPRPHHYPRP", "Escherichia coli TOP10", -0.0954),
    ("RRIRPRPPRLPRPRPRPSLKPRP", "Escherichia coli TOP10", -0.25),
    ("RRIRKRPPRLPRPRPRPYMSPRP", "Escherichia coli TOP10", 0.0659),
    ("RRIRWRPPRLPRPRPRPVENPRP", "Escherichia coli TOP10", -0.101),
    ("RRIRMRPPRLPRPRPRPRVFPRP", "Escherichia coli TOP10", 0.947),
    ("RRIRLRPPRLPRPRPRPEVEPRP", "Escherichia coli TOP10", 0.0199),
    ("RRIRLRPPRLPRPRPRPVIEPRP", "Escherichia coli TOP10", -0.0888),
]

Give shrunken log2 fold change for each listed item.
1. RRIRIRPPRLPRPRPRPFHNPRP
2. RRIRMRPPRLPRPRPRPIGNPRP

A.
-0.213
0.13
